Study target: recombinant soluble trimeric 2009 H1 HA (A/California/04/2009, wild type) (Influenza A virus A/California/04/2009 (H1N1))
Protocol summary: ELISA, supernate
Recorded endpoint: OD

GET /value?item= mAb 8F24 (antibody, V domains shown) VH: EVQLLESGGGLVQPGGSLRLSCAASGFAFSSYGMSWVRQAPGKGLEWVSAFSGSGTSTYYADSVKGRFTISRDKSKNTLYLQMNSLRAEDTAIYYCAKPPGPYIVVAGLFENWGRGTLVTVS VL: EIVMTQSPATLSVSPGERVTLSCRASQSITDGLAWYQQKSGQAPRLLIYGASTRATGIPARFSGSGSGTEFTLTISSLQSEDFAVYYCQQYNNWPPVTFGQGTKVEIKR &field=OD returns 0.714 OD
